From: ChEMBL document CHEMBL1201862

assay system: Heat shock protein HSP 90-alpha (Homo sapiens, UniProt P07900)
Assay type: functional, organism-based
Calls of active or inactive are those of the source.
measured quantity: AC50

> print(dat)
                                   compound  measured.quantity  experimental.value
1  CCCC(=O)NC(c1ccco1)c1cc(Cl)c2cccnc2c1O (stereo not drawn)               AC50    4.25 µM (active)

Entry O=C(Nc1nc(-c2ccccn2)cs1)C1COc2ccccc2O1 (stereo not drawn) — recorded AC50 = 5.85 µM (active)

Entry O=c1c2ccccc2sn1-c1ccccc1 — recorded AC50 = 18.7 µM (active)

Entry O=C1Nc2ccc(Br)cc2/C1=C/C1CC=CCC1 (stereo not drawn) — recorded AC50 = 8.03 µM (active)

Entry O=S(=O)(Nc1nc2ccccc2nc1N1CCN(c2ccccn2)CC1)c1ccc(Cl)cc1 — recorded AC50 = 6.23 µM (active)

Entry Oc1ccc(Cl)cc1Sc1cc(Cl)ccc1O [FENTICLOR] — recorded AC50 = 4.11 µM (active)

Entry O=[N+]([O-])c1ccc(/C=N/c2ccc(Cl)c([N+](=O)[O-])c2)s1 — recorded AC50 = 2.99 µM (active)

Entry COc1ccc(OC)c(NC(=O)c2nc(S(=O)(=O)Cc3ccccc3)ncc2Cl)c1 — recorded AC50 = 2.95 µM (active)
